ASSAYED SYSTEM: T1, recombinant canine β NGF (canine, UniProt Q29074 110-229 (pig entry))
T1 chain: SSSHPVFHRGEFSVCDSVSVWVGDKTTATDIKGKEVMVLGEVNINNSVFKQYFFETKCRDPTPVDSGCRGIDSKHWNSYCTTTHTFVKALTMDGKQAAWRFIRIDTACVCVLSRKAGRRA
TEST METHOD NOTES: cell-based or functional assay
Below: a set of entries, each annotated with reported SureFire cellular pERK IC50 (128 pM canine NGF).

Looking up PR-1254973 (antibody, mouse IgG2b, V domains shown) VH: QVQLQQPGAELVKPGASVKLSCKASGYTFTNYWMHWVKQRPGQGLEWIGRIDPYGGGTKHNEKFKRKATVTADKSSSTAYILLSSLTSEDSAVYYCTRSGYDYYFDVWGTGTTVTVSS VL: DIQMTQSPASLSASVGETVTVTCRASENIYSFLAWHQQKQGKSPQLLVYNANTLAEGVPSRFSGSGSGTQFSLKINSLQPEDFGSYYCQHHFGTPFTFGSGTKLEIKR , I found its SureFire cellular pERK IC50 (128 pM canine NGF) recorded as < 1 nM

Lab note: next binder to report on.
Looking up PR-1254980 (antibody, mouse IgG1, V domains shown, also called 23F1; ML129-23F1.4G3) VH: EVQLQQSGAELVKPGASVKLSCTASGFNIKDTYIYWVKQRPEQGLEWIGRIDPANGNTIYASKFQGKATITADTSSNTAYMQLSSLTSGDTAVYYCAGYGYYAYWGQGTTLTVSS VL: DVVLTQTPLSLPVNIGDQASISCKSTKSLLNGDGFTYLDWYLQKPGQSPQLLIYLVSNRFSGVPDRFSGSGSGTDFTLKISRVEAEDLGVYYCFESNYLFTFGSGTKLEMKR , I found its SureFire cellular pERK IC50 (128 pM canine NGF) recorded as < 1 nM

Value source: patent US20180362629A1
